Listed below: composite z-score values for each entry.
- subject_of_test: Dickkopf-related protein 1 (Homo sapiens)
- assay_details: DKK1 binders on small-molecule microarrays, primary screen, biochemical, small-molecule microarray, 635 nm fluorescence scan (AID 1106);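 further: score merges emission near 667 nm with signal to noise over three replicate slides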
- condition_details: DKK1 binding, higher = more signal
Form rule: numeric answer, no unit written next to it.

compound	reported_measurement
COCCOC(=O)N1C(=O)[C@@]2(c3cc(C#CCC(C(=O)OC)C(=O)OC)ccc31)[C@H](c1ccc(OCCO)cc1)N1[C@H](c3ccccc3)[C@H](c3ccccc3)OC(=O)[C@H]1[C@@H]2C(=O)N1CCCCCCC1	1.04
[N-]=[N+]=NCc1ccccc1[C@H]1OC(c2ccc(OCCCO)cc2)=N[C@@]1(Cc1ccccc1)C(=O)N1CCOCC1	-0.0244
COCCOC(=O)N1C(=O)[C@@]2(c3ccccc31)[C@H](C(=O)N1CCCCCCC1)[C@H]1C(=O)O[C@H](c3ccccc3)[C@H](c3ccccc3)N1[C@@H]2c1ccc(O)cc1	1.93
COc1ccc(CCNC(=O)[C@@]2(Sc3ccc(C)cc3)CC(=O)N(Cc3cc(C(F)(F)F)cc(C(F)(F)F)c3)[C@@H]2c2ccc(CO)cc2)cc1	-1.88
COC(=O)C1=CC(CCCO)=CC(C2CC2)N(Cc2cccc(OC(F)(F)F)c2)C=C1C(=O)OC (centres undefined)	-0.59
COCCOC(=O)N1C(=O)[C@@]2(c3cc(C#CCCO)ccc31)[C@H](C(=O)N1CCc3cc(OC)c(OC)cc3C1)[C@H]1C(=O)O[C@H](c3ccccc3)[C@H](c3ccccc3)N1[C@@H]2c1ccccc1OCCO	0.35

// recorded composite z-score for Cc1c(-c2ccc(-c3ccc(Cl)c(Cl)c3)o2)nc(-c2ccccc2)c2c1CO[Si]2(C(C)C)C(C)C : -0.234

Sample CC(C)C[C@@H]1NC(=O)[C@H]2C[C@@H](C(=O)NCCCCCCNC(=O)CS)[C@@H](c3ccc(O)cc3)N2C1=O ; composite z-score observed: 0.868

Entry CC(C)[C@@H](C(=O)O)n1cc(-c2ccccc2)nn1 ; composite z-score = 0.0435
